Ref: patent US11932673

Assign IC50 of inhibition of huKv1.3 currents (extrapolated) to each entry below.
- target: human Kv 1.3 (human, UniProt P22001 1-575)
- Sequence (P22001 whole entry): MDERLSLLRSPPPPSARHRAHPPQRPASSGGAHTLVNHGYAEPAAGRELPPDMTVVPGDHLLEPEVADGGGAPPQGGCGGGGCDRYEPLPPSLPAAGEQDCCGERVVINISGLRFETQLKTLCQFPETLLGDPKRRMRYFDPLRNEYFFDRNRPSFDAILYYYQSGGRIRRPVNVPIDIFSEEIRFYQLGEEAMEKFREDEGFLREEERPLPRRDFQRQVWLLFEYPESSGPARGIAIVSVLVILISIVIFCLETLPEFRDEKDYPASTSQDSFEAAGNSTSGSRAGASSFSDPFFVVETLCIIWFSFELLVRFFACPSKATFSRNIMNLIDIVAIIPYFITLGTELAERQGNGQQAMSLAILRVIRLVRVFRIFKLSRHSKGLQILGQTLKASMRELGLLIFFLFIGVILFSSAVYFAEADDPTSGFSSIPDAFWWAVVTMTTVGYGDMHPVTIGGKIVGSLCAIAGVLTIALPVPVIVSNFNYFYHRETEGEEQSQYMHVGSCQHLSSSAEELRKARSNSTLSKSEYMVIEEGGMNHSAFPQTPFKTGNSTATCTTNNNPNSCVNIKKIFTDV
- method-notes: cell-based or functional assay

Task: May I ask what IC50 of inhibition of huKv1.3 currents (extrapolated) has been recorded for KB_A12 (scFv, V domains shown) VH: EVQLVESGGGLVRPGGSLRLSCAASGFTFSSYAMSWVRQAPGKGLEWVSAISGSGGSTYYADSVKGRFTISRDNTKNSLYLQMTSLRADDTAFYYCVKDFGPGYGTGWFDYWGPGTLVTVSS VL: AVNWYQQLPGKAPKLLIYAAGRCPRILMRCKQDSDCLAGCVCGPNGFCGANSGVSDRFSAAKSGTSASLAINGLRSEDEADYYCAAWDDSLNGYVFGTGTKLTVLG ?
Output: > 10 µM

Task: May I ask what IC50 of inhibition of huKv1.3 currents (extrapolated) has been recorded for KB_A12 MoKa-1 (antibody, V domains shown) VH: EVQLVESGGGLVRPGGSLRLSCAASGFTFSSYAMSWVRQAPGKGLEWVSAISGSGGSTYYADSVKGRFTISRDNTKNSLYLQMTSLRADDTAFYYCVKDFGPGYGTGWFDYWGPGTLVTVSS VL: QSVLTQPPSVSEAPRQRVTITCSGSSSNIGNNAVNWYQQLPGKAPKLLIYAAGRINVKCSLPQQCIKPCKDAGMRFGKCMNKKCRCYSANSGVSDRFSAAKSGTSASLAINGLRSEDEADYYCAAWDDSLNGYVFGTGTKLTVLG ?
Output: > 10 µM

Task: May I ask what IC50 of inhibition of huKv1.3 currents (extrapolated) has been recorded for KB_A07 (scFv, V domains shown) VH: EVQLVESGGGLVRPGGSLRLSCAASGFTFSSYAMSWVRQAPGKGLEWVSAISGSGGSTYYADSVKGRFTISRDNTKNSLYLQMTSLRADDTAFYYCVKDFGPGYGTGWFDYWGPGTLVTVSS VL: YLNWYQQKPGKAPKLLIYAAGVCPRILMRCKQDSDCLAGCVCGPNGFCGSRSGVPSRFSGSGSGTDFTLTISSLQPEDFATYYCQQGASPPYTFGQGTKVEIKR ?
Output: > 10 µM
